Assay info: LD50 mice
Condition set: mouse, in vivo, oral
Metric name: LD50 (mg/kg)
Expressed in mg/kg, but write only the number.

Problem: Name the recorded LD50 for CCN(CC)c1nc(-c2ccc(Cl)cc2)c(CC(=O)O)s1 [LR 407] .
Solution: 1260

Problem: Recorded LD50 of CCN(CC)CCNC(=O)Cc1sc(N)nc1-c1ccc(Cl)cc1 [LR 450] , please.
Solution: 238

* * *

Assay info: LD50 mice
Condition set: mouse, in vivo, ip, intraperitoneal
Kindly state LD50 for each of the entries shown.
Report as a plain number; the unit mg/kg is understood.

Problem: Which LD50 is listed for "Nc1nc(-c2ccc(Cl)cc2)c(CC(=O)O)s1" ?
Solution: 800

Problem: Fill in the blank: the reported LD50 of "CCN(CC)c1nc(-c2ccc(Cl)cc2)c(CC(=O)O)s1" is ____.
Solution: 400

Problem: Look at this molecule and give its reported LD50. "CCN(CC)CCNC(=O)Cc1sc(N)nc1-c1ccc(Cl)cc1"
Solution: 43
